test: Human HepG2 cell viability assay in 384 well format; assay type: toxicity, cell-based; parameters: dose 125 nL, time 70.5 hour; concentration not given beside the values; conditions: HepG2 cells, read-out: Inhibition

# MOLECULE, cytotoxicity at 70.5 h [%]
records = [
    ("Cc1cccc(CN2CCC3(CCCN(C(=O)c4ccoc4)C3)C2=O)n1 (stereo not drawn)", -3.14),
    ("Cc1noc(C)c1CCC(=O)NCCc1cccs1", -7.09),
    ("Cc1ccc(CN2CCC3(CC2)CCN(Cc2ccoc2)CC3)cc1", -5.46),
    ("CC(C)c1cc(NC(=O)CNC2CCc3nc(C(C)C)nn3C2)on1 (stereo not drawn)", 4.46),
    ("CCc1c(C(=O)NCC2CCS(=O)(=O)C2)cnn1-c1ccccc1 (stereo not drawn)", -4.41),
    ("CC(C)CNC(=O)c1ccc(NC(=O)NC2CC2)cc1Cl", -12.8),
    ("c1coc(COCc2ncn3c2CN(Cc2cccs2)CCC3)c1", -2.67),
    ("COc1ccc(-n2ccc(C(=O)NCCN3CCCCCC3)n2)cc1", -2.62),
    ("CCN(CC)C1COc2c(cc(Br)c(C)c2Br)C1=O (stereo not drawn)", -7.72),
    ("Cc1nn(CCO)c(C)c1CNC1CCOc2ccccc21 (stereo not drawn)", -2.7),
    ("Cc1cc(C(=O)N(C)Cc2ccn[nH]2)c(NC(=O)C(C)(C)C)s1", -9.88),
    ("Cc1cc(C)c(CNC(=O)N2CCN(c3nccs3)CC2)c(=O)[nH]1", 14.3),
    ("Cn1nc(Cn2cccc2)c2c1CN(Cc1ccsc1)C2", -9.77),
    ("Cc1nc(CN2CCCC(NCCOc3ccccc3)C2)no1 (stereo not drawn)", -5.84),
    ("Nc1nc(CN2CCN(c3nccs3)CC2)cs1", -5.16),
    ("Cc1cnc(CN(C)C2CCN(CCCc3cnn(C)c3)C2)o1 (stereo not drawn)", -8),
    ("CN(Cc1ccco1)C(=O)NCc1ccnc(SC(C)(C)C)c1", -8.67),
    ("C=C(C)CN1CCN(Cc2cnc(OC)nc2)CC1", 6.5),
]

###

assay: Human HepG2 cell viability assay in 384 well format; assay type: toxicity, cell-based; set-up: dose 125 nL, time 70.5 hour; concentration not given beside the values; conditions: HepG2 cells, read-out: Inhibition

# COMPOUND, cytotoxicity at 70.5 h, %
records = [
    ("CCN(Cc1c(F)cccc1F)C(=O)c1ccncc1O", -7.76),
    ("CCNC(=O)NC1CN(CC(=O)NCc2ccccc2C)C[C@@H]1OC (stereo partly drawn)", 1.44),
    ("COc1cccc2c(=O)n(Cc3cc(C4CC4)[nH]n3)cnc12", 0.602),
    ("CC1c2ccc(F)cc2CCN1C(=O)c1[nH]c(=O)[nH]c(=O)c1N (stereo not drawn)", -1.6),
    ("CC(=O)c1cccc(NC(=O)CN2CCCCC2C2OCCO2)c1 (stereo not drawn)", -1.12),
    ("Cc1cccc(-c2nc(N)nc3c2CN(C(=O)c2cc(C)n[nH]2)C3C)c1 (stereo not drawn)", -13.9),
    ("COc1cc(CN(C)C(=O)NCCC(=O)NC2CCCC2)ccc1SC", 14.4),
    ("CCN1CCN(CCNC(=O)c2sc(C(C)C)nc2C)CC1", 0.965),
    ("Cc1ncc(CNC2CC(=O)N(CCc3ccc(F)cc3)C2)n1C (stereo not drawn)", -10.7),
    ("O=C(C1CCN(c2ncnc3cccc(F)c23)CC1)N1CCCC1", 8.28),
    ("CC(=O)N1CC(c2ccnc(Nc3ccc(C)cn3)n2)C1", -4.62),
    ("N#Cc1cccnc1NCCC1CCN(CC(F)(F)F)CC1", -5),
    ("CC(=O)Nc1cc(C2CC2)nn1-c1nc(C)c(C)c(=O)[nH]1", 38.4),
]

###

assay: Human HepG2 cell viability assay in 384 well format; assay type: toxicity, cell-based; set-up: dose 125 nL, time 70.5 hour; concentration not given beside the values; details: HepG2 cells, read-out: Inhibition
PROPERTY: cytotoxicity at 70.5 h (%)

# COMPOUND, DISPLAY UNIT, ENDPOINT VALUE
data = [
    ("CC(C)(C)OC(=O)N1CC(=O)N(Cc2ccco2)CC(O)C1 (stereo not given)", "%", -7.3),
    ("COCc1n[nH]c2c1CN(Cc1cccs1)C2", "%", -6.13),
    ("Cc1nc(CN(C)C2CCN(CC3CCC3)C2)no1 (stereo not given)", "%", -4.98),
    ("CC(c1cn2ncsc2n1)N1Cc2ncccc2C1=O (stereo not given)", "%", -10.3),
    ("O=C(CN1CCC(c2ccnn2CCO)CC1)NC1CCCC1", "%", -3.63),
    ("CN1CCN(Cc2nc3c(s2)CCCC3)[C@H]2CS(=O)(=O)C[C@H]21", "%", 1.26),
    ("O=C(COC1CCCCC1)NS(=O)(=O)c1ccc2c(c1)OCCCO2", "%", 13.6),
    ("Cc1nc(COC[C@H]2CC[C@H]3[C@H](CCN3C(N)=O)O2)cs1", "%", -1.77),
    ("COC(=O)c1ccc(CN[C@@H]2COC[C@H]2Cc2cc(C)no2)cc1", "%", -4.83),
    ("Cc1ccnn1CC(=O)N(C)Cc1ccc(-n2cccn2)cc1", "%", -7.33),
]

###

Reported cytotoxicity at 70.5 h values are given for each entry in this list.
assay: Human HepG2 cell viability assay in 384 well format; format: toxicity, cell-based; design: dose 125 nL, time 70.5 hour; concentration not given beside the values; conditions: HepG2 cells, read-out: Inhibition

# COMPOUND, cytotoxicity at 70.5 h [%]
data = [
    ("Cc1ncsc1-c1nnc(C2CCCN2C(=O)Cn2cccn2)o1 (stereo unspecified)", 3.13),
    ("O=C(O)c1cccc(CC2CCN(c3cnccn3)CC2)c1", -2.92),
    ("Cc1cc(C(=O)N(C)C)nc(C2(C)CCCN2c2ccnc(C)n2)n1 (stereo unspecified)", -6.87),
    ("O=C(NCCC1=CCCCC1)NC1CCCc2c1cnn2CCO (stereo unspecified)", -10.1),
    ("CC(O)(CNc1ccc(Cl)c(C#N)n1)c1ccsc1 (stereo unspecified)", 10.6),
    ("CC(=O)NC1CCCN(C(=O)NCc2ccc(-c3ccn[nH]3)cc2)C1 (stereo unspecified)", 3.22),
    ("CCN(CC(=O)NC)C(=O)c1sc(Cc2ccccc2)nc1C", -11.7),
    ("O=C(c1ccc(C2CCCN2)s1)N1CCC2(CCCO2)CC1 (stereo unspecified)", -6.68),
    ("Cc1cccc(CC(=O)N2CCN(c3nccn3C)CC2)c1", -1.55),
    ("Nc1ccc(C(=O)N2C[C@@H]3CC[C@H](C2)N(Cc2ccccc2)C3)cn1", -2.24),
    ("CCCn1cc(C(=O)NC(CC(=O)O)c2ccccc2F)c(C)n1 (stereo unspecified)", 6.87),
    ("CCc1cc(CNC(=O)NCC(c2ccco2)N2CCCC2)[nH]n1 (stereo unspecified)", -3.15),
    ("c1cn(CCNc2nc(NC3CC3)nc3c2CCNCC3)nn1", -14.7),
    ("c1cncc(-c2nnc([C@H]3CCN(CC4CC4)C3)o2)c1", 8.27),
    ("O=C(c1ccccc1)N1CCCn2c(CN3CCCCC3)nnc2C1", 26.2),
    ("Cc1noc(C)c1CN1CCC(N(C)Cc2nnc(C3CC3)n2C)C1 (stereo unspecified)", -2.84),
    ("CNC(=O)C(C)CN(C)C(=O)Nc1cc(-n2cccc2)ccc1F (stereo unspecified)", -3.24),
    ("O=C(NCCCn1cccn1)C1(c2ccc(F)cc2)CC1", -2.75),
    ("C[S+]([O-])CCNCc1ccc(OCc2cscn2)cc1 (stereo unspecified)", 1.77),
    ("CNc1cncc(C2CCCN2c2cc(C)ncn2)n1 (stereo unspecified)", 17.1),
    ("CC(=O)N1CCC(C(=O)NCc2ncc(-c3ccccc3)o2)CC1", -14.2),
]

###

experiment: Human HepG2 cell viability assay in 384 well format; assay type: toxicity, cell-based; design: dose 125 nL, time 70.5 hour; concentration not given beside the values; details: HepG2 cells, read-out: Inhibition
Reported cytotoxicity at 70.5 h values are given for each entry in this list.

# MOLECULE, cytotoxicity at 70.5 h, %
measured = [
    ("CC(=O)N1CCOC[C@H](OCC(=O)N(C)C)C1", 0.496),
    ("CSC(C)C(=O)N1CCN(CC(C)(C)O)CC1 (stereo unspecified)", -14),
    ("Cc1cc(C)n(CCNC(=O)c2cc(C3CC3)n[nH]2)n1", -4.88),
    ("O=C(c1ccno1)N1CC[C@@H]2O[C@@H](COCCN3CCCC3)CC[C@@H]21", -17.9),
    ("O=C(NCC1CC1)C1CCC2(CCN(C(=O)c3ccncc3)CC2)O1 (stereo unspecified)", 10.5),
    ("CC(C)(C)C(=O)NCC(=O)NCCc1nc(C(F)(F)F)cs1", -9.84),
    ("Cc1nc(-c2ccccc2)n(CC(=O)NC(C)(C)C)n1", 1.44),
    ("Cc1cc(N(C)C)nc(C2COCCN2Cc2csc(C)n2)n1 (stereo unspecified)", 10.4),
    ("Cc1csc(C2CCCN(C(=O)c3cccc4c3OCO4)C2)n1 (stereo unspecified)", -4.7),
    ("CN(C)CCN1C(=O)CCC12CCCN(C(=O)c1cccnc1)CC2 (stereo unspecified)", -5.29),
    ("CN(C1CCN(C(=O)NCCc2ccc(F)cc2F)CC1)S(C)(=O)=O", -5.3),
    ("CCNC(=O)NC(=O)CN1CCC(c2cccc(F)c2)C1 (stereo unspecified)", -2.05),
    ("N#Cc1cccnc1N1CCN(C(=O)c2cccs2)CC1", -3),
    ("CCc1cnc(NCCS(=O)(=O)CC(C)C)nc1", 19.7),
    ("CC(C)n1cnc(C2CN(C)c3ccc(C(=O)NCC4CC4)cc32)n1 (stereo unspecified)", -3.88),
    ("COC[C@]12COC[C@H]1CN(C(=O)C1CCSCC1)C2", -6.73),
    ("CCCN1CCCCCC1Cc1c(C(=O)NC)sc2ccccc12 (stereo unspecified)", 27.8),
    ("Cc1noc(C)c1CN1CCn2cc(CNC(=O)C3CCC3)nc2C1", -12.7),
    ("CS(=O)(=O)N1CC2(CCN(C(=O)c3csnn3)CC2)c2ccccc21", -4.79),
    ("COc1ccc2c(c1)c(C(=O)Nc1nnn[nH]1)cn2C", -13.5),
    ("CNC(=O)c1cccc(CNC(C)c2cc(C)ccc2OC(F)F)c1 (stereo unspecified)", -7.54),
    ("Cc1cc(Br)oc1C(=O)N1CCCN(CC(N)=O)CC1", -7.35),
    ("Cc1cc(NCc2noc(C(C)C)n2)nc(-c2ccccc2)n1", 12.1),
    ("Cc1ccc2c(n1)N(CCN(C)C)CCN(C(=O)N1CCOCC1)C2", -3.39),
    ("COCCn1c2c(ccc1=O)CC(NCc1cccnc1OC)CC2 (stereo unspecified)", -13.6),
    ("CC[C@H](C)Nc1nccc(-c2cnc3sc(C)cn3c2=O)n1", -5.35),
    ("CC(CN1CCC(CCO)CC1)n1cnc2ccccc21 (stereo unspecified)", -11.4),
    ("CCOC1COC2(CCN(Cc3cccc(C#N)c3)CC2)C1 (stereo unspecified)", -8.68),
    ("CCCN1CCCN(c2ccc(-n3ccc(C)n3)nn2)CC1", -7.57),
    ("Cc1cc(NCC2CCCCC2)n2ncnc2n1", -2.65),
    ("CN(CCc1ccccn1)C(=O)CCC1CCCN(c2cnccn2)C1 (stereo unspecified)", 2.36),
]
